system: NCI-H460; assay: NCI tumour cell line growth inhibition, 48 h
Activity calls are given as the source filed them. No stated cut-off is given here; in the data, active = GI50 up to about 1.1 µM and inactive = higher.
EXPERIMENTAL_READOUT: GI50

Ask: Read the entry `COC(=O)/C=C\C(C#N)(C#N)/N=C/c1cccc(OC)c1` and write its reported GI50.
Result: 20 µM (inactive)

Ask: Read the entry CCN(CC)CC[S+]([O-])c1c2cc(OC)ccc2nc2ccc(OC)cc12 (centres undefined) and write its reported GI50.
Result: 27.7 µM (inactive)

Ask: Read the entry Cc1ccc(S(=O)(=O)N/N=C2\CCCCC23CCC(=O)NC3)cc1 (centres undefined) and write its reported GI50.
Result: > 100 µM (inactive)

Ask: Read the entry CCOC(=O)C1=C(C)N2CCCOC2(C)C(C(=O)OC)C1c1cccc([N+](=O)[O-])c1 (centres undefined) and write its reported GI50.
Result: 57.4 µM (inactive)

###

// endpoint GI50 / system HCT-15

Ask: Read the entry `CCOc1ccc(-n2c(=O)c3nn4c(=O)n(-c5ccc(OCC)cc5)c(=O)c4nn3c2=O)cc1` and write its reported GI50.
Result: > 100 µM

Ask: Read the entry `C/C(=N\Nc1nc2ccccc2s1)c1ccc2ccccc2n1` and write its reported GI50.
Result: > 100 µM

Ask: Read the entry `Cc1cccc2c(=O)c3cccc(CC(=O)O)c3oc12` and write its reported GI50.
Result: > 100 µM

Ask: Read the entry `COc1ccc(/C=C(/c2ccccc2)c2c(C)cc(C)c(/C(=C\c3ccc(OC)cc3)c3ccccc3)c2/N=N/c2cc(C)cc(C)c2)cc1` and write its reported GI50.
Result: > 66.1 µM

Ask: Read the entry CCCCCC(=O)C(C)C1=Nc2nnc(CCCCCCCc3nnc4n3C(=O)C(C(C)C(=O)CCCCC)=N4)n2C1=O (configuration not stated) and write its reported GI50.
Result: > 100 µM

Ask: Read the entry CC1=C(OC2OC(CO)C(O)C(O)C2O)C(=O)C[C@H]2C1=CC[C@@H]1[C@@]2(C)C(=O)C[C@]2(C)[C@@H]([C@@](C)(O)C(=O)CCC(C)(C)O)[C@H](O)C[C@@]12C (some centres not stated) and write its reported GI50.
Result: > 100 µM

Ask: Read the entry `CCOC(=O)/C(C)=C(/O)C(=O)OCC` and write its reported GI50.
Result: > 100 µM

Ask: Read the entry `CCOP(=O)(OCC)/C(C#N)=C/c1cccn1C(C)C` and write its reported GI50.
Result: > 100 µM

Ask: Read the entry `COc1ccc2[nH]c(C(O)(Cc3cccnc3)Cc3cccnc3)cc2c1` and write its reported GI50.
Result: > 100 µM

Ask: Read the entry CN(C(=O)C12C3C4C5C3C1(C(=O)C13C6C7C8C6C1C8C73)C5C42)C(C)(C)C (configuration not stated) and write its reported GI50.
Result: > 21.3 µM

Ask: Read the entry N#CC(C#N)=c1ccc(=C2NCC3CCCN23)cc1 (configuration not stated) and write its reported GI50.
Result: > 100 µM

Ask: Read the entry `Cc1cc([N+](=O)[O-])c(C)c(Br)c1C` and write its reported GI50.
Result: > 100 µM

Ask: Read the entry `CCc1cccc(NC(=O)c2cc(/C=C/c3ccccc3)nc(S)n2)c1` and write its reported GI50.
Result: > 100 µM

Ask: Read the entry c1ccc2c(c1)OC(N1CCCC1)c1cnc(N3CCCC3)nc1-2 (configuration not stated) and write its reported GI50.
Result: 29.7 µM

Ask: Read the entry `COc1ncnc2c1cnn2Cc1cn(CCCCO)nn1` and write its reported GI50.
Result: > 100 µM

Ask: Read the entry `[N-]=[N+]=Nc1ccc2c(c1)Sc1ccccc1N2CCCCCl` and write its reported GI50.
Result: 81.3 µM

Ask: Read the entry COc1cc(C(c2cc3c(cc2O)OCO3)N2CCCCC2)cc(OC)c1OC (configuration not stated) and write its reported GI50.
Result: 15.9 µM

Ask: Read the entry COP(=O)(OC)C(NC(=O)C(F)(F)F)(c1ccccc1)C(F)(F)F (configuration not stated) and write its reported GI50.
Result: > 100 µM

Ask: Read the entry `C=C1CN2CC(=C)CN(C1)CS(=O)(=O)N1CC(=C)CN(CC(=C)C1)S(=O)(=O)N1CC(=C)CN(CC(=C)C1)S(=O)(=O)C2` and write its reported GI50.
Result: > 100 µM

Ask: Read the entry `COC(=O)c1nc(NC#N)nc(O)c1C` and write its reported GI50.
Result: > 87.3 µM

Ask: Read the entry `O=C(/C=C/c1ccc(O)c(O)c1)Oc1ccccc1` and write its reported GI50.
Result: 2.74 µM

Ask: Read the entry `Cc1cc(OCC(=O)O)c(Cl)cc1Cl` and write its reported GI50.
Result: > 100 µM

Ask: Read the entry CC1=NN=C(N)N/C1=C\C(Sc1ccc(Cl)cc1)c1ccc(Cl)cc1Cl (configuration not stated) and write its reported GI50.
Result: 10.9 µM

Ask: Read the entry CCOC(=O)C1C(c2ccccc2)C2(C#N)C(=N)OC1(C)C2(C#N)C#N (configuration not stated) and write its reported GI50.
Result: 37.3 µM

Ask: Read the entry `Clc1ccc(SCCCCCCCCCCSc2ccc(Cl)cc2)cc1` and write its reported GI50.
Result: > 54.2 µM

Ask: Read the entry O=C1NC2C3CC(OCc4ccccc4)(OCc4ccccc4)C2OC3O1 (configuration not stated) and write its reported GI50.
Result: > 50 µM

Ask: Read the entry CC(=O)OC1CC[C@@]2(C)C(CC[C@]3(C)C2CC=C2[C@@H]4C(C)[C@H](C)CCC4(C)CCC23C)[C@@]1(C)C(=O)O (some centres not stated) and write its reported GI50.
Result: 17.6 µM

###

Provide the recorded GI50 for the entries that follow.
system: HOP-92; test: NCI tumour cell line growth inhibition, 48 h
Active and inactive are the calls of the source. Rule as the data show it: active = GI50 up to about 1.1 µM and inactive = higher.

Ask: State recorded GI50 with HOP-92, entry O=C(CC1(O)C(=O)Nc2ccccc21)c1ccc(Cl)cc1Cl (stereo not drawn) , no comment.
Result: > 100 µM (inactive)

Ask: State recorded GI50 with HOP-92, entry CCOC(=O)C12CN(C34CC5CC(CC(C5)C3)C4)CC(C(=O)OCC)(C1=O)C(c1ccccc1)OC2c1ccccc1 (stereo not drawn) , no comment.
Result: 2.04 µM (inactive)

Ask: State recorded GI50 with HOP-92, entry `O=C(O)CNS(=O)(=O)c1ccc(NC(=O)CI)cc1` , no comment.
Result: 19.4 µM (inactive)

Ask: State recorded GI50 with HOP-92, entry `Clc1c2nc3ccccc3c-2[nH]c2ccccc12` , no comment.
Result: > 100 µM (inactive)

Ask: State recorded GI50 with HOP-92, entry `COC(=O)c1c(C)c2c(c(C)c1O)OC(=O)c1c(C)cc(O)c(C=O)c1O2` , no comment.
Result: > 100 µM (inactive)

Ask: State recorded GI50 with HOP-92, entry `O=C(c1cccc2ccccc12)N1CCC(C2CCN(C(=O)c3cccc4ccccc34)CC2)CC1` , no comment.
Result: > 100 µM (inactive)

Ask: State recorded GI50 with HOP-92, entry `c1cc2c(c(-c3c4ccccc4nc4ccccc34)c1)CC1(CC2)OCCO1` , no comment.
Result: > 100 µM (inactive)

Ask: State recorded GI50 with HOP-92, entry `Cc1ccc(C)c(N2C(=O)C(=O)c3c(C)ccc(C)c32)c1` , no comment.
Result: 23.6 µM (inactive)

###

Provide the recorded GI50 for the entries that follow.
system: CAKI-1; test: NCI tumour cell line growth inhibition, 48 h
Active and inactive are the calls of the source. No stated cut-off is given here; in the data, active = GI50 up to about 1.1 µM and inactive = higher.

Ask: Read the entry `CCOC(=O)c1c(CN2CCNCC2)nc2ccc(Cl)cc2c1-c1ccccc1` and write its reported GI50.
Result: 2.47 µM (inactive)

Ask: Read the entry `O=C1c2cccc3cc([N+](=O)[O-])cc(c23)C(=O)N1c1ccc(OCCN2CCCC2)cc1` and write its reported GI50.
Result: > 100 µM (inactive)

Ask: Read the entry Cc1ccc(C2NC(=N)NC3=C2CCOc2c3ccc3ccccc23)cc1 (centres undefined) and write its reported GI50.
Result: 3.66 µM (inactive)

Ask: Read the entry CCCCNc1nc(NC2OCC(OC(C)=O)C(OC(C)=O)C2OC(C)=O)c(N=O)c(=O)n1C (centres undefined) and write its reported GI50.
Result: > 10 µM (inactive)

Ask: Read the entry COc1cc(-c2coc3c(OC)c(OC4OC(COC5OC(C)C(O)C(O)C5O)C(O)C(O)C4O)c(OC)c(O)c3c2=O)cc(C)c1O (centres undefined) and write its reported GI50.
Result: 18 µM (inactive)

Ask: Read the entry `COc1cccc(/N=N/C(=N\NC(=O)c2ccc(C)cc2)c2ccc(N(CCC#N)CCC#N)cc2C)c1` and write its reported GI50.
Result: > 100 µM (inactive)

Ask: Read the entry CCN(CC)CC[S+]([O-])c1c2cc(OC)ccc2nc2ccc(OC)cc12 (centres undefined) and write its reported GI50.
Result: 9.75 µM (inactive)

Ask: Read the entry `Cc1cc(OCC(=O)O)c(Cl)cc1Cl` and write its reported GI50.
Result: > 100 µM (inactive)

Ask: Read the entry `O=[N+]([O-])c1ccc(-c2nnc(C34CC5CC(CC(C5)C3)C4)o2)cc1` and write its reported GI50.
Result: > 100 µM (inactive)

Ask: Read the entry `COc1ccc(Cc2n[nH]c(Nc3ccc(Br)cc3)nc2=O)cc1OC` and write its reported GI50.
Result: > 100 µM (inactive)

Ask: Read the entry `Cc1ccc(C(=O)CC(O)(C(F)(F)F)C(F)(F)F)cc1[N+](=O)[O-]` and write its reported GI50.
Result: 2.36 µM (inactive)

Ask: Read the entry CCN(CC)CC(C(=O)Nc1c(C)cccc1C)/C(C)=N\NC(=O)c1ccncc1 (centres undefined) and write its reported GI50.
Result: > 100 µM (inactive)

Ask: Read the entry O=C1NC2C3CC(OCc4ccccc4)(OCc4ccccc4)C2OC3O1 (centres undefined) and write its reported GI50.
Result: > 50 µM (inactive)

Ask: Read the entry `COc1c(-c2ccc(O)c(O)c2)oc2c(O)c(O)cc(O)c2c1=O` and write its reported GI50.
Result: 64.6 µM (inactive)

Ask: Read the entry `O=C(Nc1ccccc1-c1nn(C(=S)Nc2ccccc2)c(=S)n(C(=S)Nc2ccccc2)c1=O)C(F)(F)F` and write its reported GI50.
Result: 31.4 µM (inactive)

Ask: Read the entry C[n+]1c2ccccc2c(NC(CS)C(=O)O)c2ccccc21 (centres undefined) and write its reported GI50.
Result: 28.5 µM (inactive)

Ask: Read the entry `COc1ccc(/C=C2\N=C(SC)NC2=O)cc1` and write its reported GI50.
Result: 56 µM (inactive)

Ask: Read the entry CC(=O)OCC1OC(n2c(Br)nc3c2c(=O)n(C)c(=O)n3C)C(OC(C)=O)C1OC(C)=O (centres undefined) and write its reported GI50.
Result: > 100 µM (inactive)

Ask: Read the entry `Nc1ccc(Nc2cc(O)nc(O)n2)cc1` and write its reported GI50.
Result: > 100 µM (inactive)

Ask: Read the entry COC(=O)C1=C(C)C=C(N2CCOCC2)C(C(=O)OC)C1c1ccccc1 (centres undefined) and write its reported GI50.
Result: > 10 µM (inactive)

Ask: Read the entry `CC(=O)NC1=C(Nc2ccc(C)cc2)C(=O)c2ccccc2C1=O` and write its reported GI50.
Result: 43.7 µM (inactive)

Ask: Read the entry c1ccc2c(c1)N=C(c1cccc3ccccc13)CC(c1cccc3ccccc13)S2 (centres undefined) and write its reported GI50.
Result: 4.43 µM (inactive)

Ask: Read the entry CC(=O)C(C(=O)c1ccc(C)cc1)[C@@H]1OC(C)(C)O[C@@H]1[C@H]1COC(C)(C)O1 (some centres undefined) and write its reported GI50.
Result: 21.5 µM (inactive)

Ask: Read the entry `O=C1[C@@H]2C(c3cccc([N+](=O)[O-])c3)=NO[C@@H]2C(=O)N1c1ccc(Cc2ccc(N3C(=O)[C@H]4C(c5cccc([N+](=O)[O-])c5)=NO[C@H]4C3=O)cc2)cc1` and write its reported GI50.
Result: > 100 µM (inactive)

Ask: Read the entry `COc1cc(OC)c2c(O)c3c(cc2c1)CC(C)(C)CC3=O` and write its reported GI50.
Result: > 100 µM (inactive)

Ask: Read the entry `CC1(C)C(=O)/C=C\C(=O)C(C)(C)C(=O)/C=C\C(=O)C(C)(C)C2=CC=C(O2)C(C)(C)C(=O)/C=C\C1=O` and write its reported GI50.
Result: 3.84 µM (inactive)

Ask: Read the entry `Oc1cc(-c2ccc3c(c2)OCO3)nc2cc3c(cc12)OCO3` and write its reported GI50.
Result: 64.4 µM (inactive)

Ask: Read the entry C[C@@H](NC1CCCC[C@@H]1O)c1ccccc1 (some centres undefined) and write its reported GI50.
Result: > 100 µM (inactive)

Ask: Read the entry CC(=O)OC1CC[C@@]2(C)C(CC[C@]3(C)C2CC=C2[C@@H]4C(C)[C@H](C)CCC4(C)CCC23C)[C@@]1(C)C(=O)O (some centres undefined) and write its reported GI50.
Result: 18.2 µM (inactive)

Ask: Read the entry `CCOP(=O)(OCC)/C(=C\n1c(=S)[nH]c2cc(C)ccc21)C(=O)OC` and write its reported GI50.
Result: > 100 µM (inactive)

Ask: Read the entry `NCCCN(CCCCN(CCCN)Cc1ccccc1)Cc1ccccc1` and write its reported GI50.
Result: 15.8 µM (inactive)

Ask: Read the entry `O=[N+]([O-])c1cc(C(F)(F)F)cc2n[se]nc12` and write its reported GI50.
Result: 4.6 µM (inactive)

Ask: Read the entry `Cc1cc2ccccc2oc(=O)/c1=N\Nc1ccccc1` and write its reported GI50.
Result: 37.4 µM (inactive)

Ask: Read the entry O=C(CC(c1ccccc1)N1CCCCC1)c1ccccc1 (centres undefined) and write its reported GI50.
Result: 15.7 µM (inactive)
